Test system: BDF1 mice, P388 leukemia ip, median survival T/C
Protocol notes: NCI In Vivo Anticancer Drug Screen. Data for tumor model P388 Leukemia (intraperitoneal) in B6D2F1 (BDF1) mice
Measurement context: endpoint: median survival time; dose: 100.0 mg/kg/injection; schedule: Q01DX009 (ip); vehicle: Klucel (hydroxypropylcellulose) (HPC); higher = longer survival
Toxic doses and inconclusive results are not listed.
Recorded endpoint: T/C

Answered cases to consult:
CC(=O)Nc1ccccc1F : 100 % of control
C/C(N=Nc1ccc([N+](=O)[O-])cc1)=N\Nc1ccccc1 : 94 % of control
CC(=O)NNc1ccc([N+](=O)[O-])cc1 : 100 % of control
CC(=O)Nc1ccc2c([N+](=O)[O-])cccc2c1-c1c(NC(C)=O)ccc2c([N+](=O)[O-])cccc12 : 110 % of control

Proceed to the following item.
Data request: What does the record list as T/C for CSc1nnnn1-c1ccccc1 ?
Data returned: 100 % of control
